Experiment: Water solubility in aqueous buffer
Assay type: physicochemical
Details: aqueous buffer 10 mM Tris-HCl, pH 7.4, 20°C; Gd by ICP-MS

>  <COMPOUND_STRUCTURE_STRING>
CCOCCOc1ccc(C[C@H]2CN(CC(=O)[O-])CCN(CC(=O)[O-])CCN(CC(=O)O)CCN2CC(=O)[O-])cc1.[Gd+3]

>  <Solubility>
> 738 mM

$$$$
>  <COMPOUND_STRUCTURE_STRING>
COCCOCCOCCOc1ccc(C[C@H]2CN(CC(=O)[O-])CCN(CC(=O)[O-])CCN(CC(=O)O)CCN2CC(=O)[O-])cc1.[Gd+3]

>  <Solubility>
> 201 mM

$$$$
>  <COMPOUND_STRUCTURE_STRING>
CCOCCOCCOCCOc1ccc(C[C@H]2CN(CC(=O)[O-])CCN(CC(=O)[O-])CCN(CC(=O)O)CCN2CC(=O)[O-])cc1.[Gd+3]

>  <Solubility>
> 284 mM

$$$$

---

Experiment: Water solubility in aqueous buffer
Type: physicochemical
Conditions: aqueous buffer 10 mM Tris-HCl, pH 7.4, 20°C; Gd by ICP-MS

>  <COMPOUND>
CCOc1ccc(CC2CN(CC(=O)[O-])CCN(CC(=O)[O-])CCN(CC(=O)O)CCN2CC(=O)[O-])cc1.[Gd+3] (stereo not drawn) [Example 7]

>  <Solubility>
> 0.403 mol/L

$$$$
>  <COMPOUND>
COCCOCCOCCOc1ccc(C[C@@H]2CN(CC(=O)[O-])CCN(CC(=O)[O-])CCN(CC(=O)O)CCN2CC(=O)[O-])cc1.[Gd+3] [Example 3]

>  <Solubility>
> 0.166 mol/L

$$$$
>  <COMPOUND>
CCOCCOCCOc1ccc(C[C@H]2CN(CC(=O)[O-])CCN(CC(=O)[O-])CCN(CC(=O)O)CCN2CC(=O)[O-])cc1.[Gd+3] [Example 2]

>  <Solubility>
> 0.055 mol/L

$$$$

---

Target: OATP1B3 (Homo sapiens, UniProt Q9NPD5)
Sequence (Q9NPD5 1-702): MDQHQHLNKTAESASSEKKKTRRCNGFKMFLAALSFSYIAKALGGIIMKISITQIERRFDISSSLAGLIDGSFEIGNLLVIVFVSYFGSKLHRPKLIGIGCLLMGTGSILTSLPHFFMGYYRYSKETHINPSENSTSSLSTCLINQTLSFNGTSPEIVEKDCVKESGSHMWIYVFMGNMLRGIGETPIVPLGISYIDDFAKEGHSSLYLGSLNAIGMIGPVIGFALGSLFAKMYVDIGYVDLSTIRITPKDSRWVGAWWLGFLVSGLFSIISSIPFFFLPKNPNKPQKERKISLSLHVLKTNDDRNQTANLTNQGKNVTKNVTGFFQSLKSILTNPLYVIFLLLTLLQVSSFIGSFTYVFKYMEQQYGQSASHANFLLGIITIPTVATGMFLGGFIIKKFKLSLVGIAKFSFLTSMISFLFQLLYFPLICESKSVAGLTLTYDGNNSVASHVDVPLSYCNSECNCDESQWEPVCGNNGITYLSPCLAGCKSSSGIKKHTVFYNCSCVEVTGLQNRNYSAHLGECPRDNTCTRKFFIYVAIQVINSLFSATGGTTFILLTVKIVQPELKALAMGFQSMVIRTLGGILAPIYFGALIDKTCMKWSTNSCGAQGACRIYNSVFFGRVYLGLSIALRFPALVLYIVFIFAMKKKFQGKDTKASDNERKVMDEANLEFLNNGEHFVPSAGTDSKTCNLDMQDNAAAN
Experiment: Uptake into stable transfected OATP1B3 HEK 293 cells
Type: cell-based
Details: OATP1B3-HEK 293 cell uptake with Rifampicine
ASSAY_METRIC: Inhibition Rifampicine (% inhibition)

>  <COMPOUND_STRUCTURE_STRING>
COCCOCCOCCOc1ccc(C[C@@H]2CN(CC(=O)[O-])CCN(CC(=O)[O-])CCN(CC(=O)O)CCN2CC(=O)[O-])cc1.[Gd+3]

>  <ASSAY_METRIC>
Inhibition Rifampicine

>  <OBS_VALUE>
84

$$$$
>  <COMPOUND_STRUCTURE_STRING>
CCOCCOCCOc1ccc(C[C@H]2CN(CC(=O)[O-])CCN(CC(=O)[O-])CCN(CC(=O)O)CCN2CC(=O)[O-])cc1.[Gd+3]

>  <ASSAY_METRIC>
Inhibition Rifampicine

>  <OBS_VALUE>
86

$$$$
>  <COMPOUND_STRUCTURE_STRING>
CCOCCOc1ccc(C[C@H]2CN(CC(=O)[O-])CCN(CC(=O)[O-])CCN(CC(=O)O)CCN2CC(=O)[O-])cc1.[Gd+3]

>  <ASSAY_METRIC>
Inhibition Rifampicine

>  <OBS_VALUE>
97

$$$$
>  <COMPOUND_STRUCTURE_STRING>
COCCOCCOCCOc1ccc(C[C@H]2CN(CC(=O)[O-])CCN(CC(=O)[O-])CCN(CC(=O)O)CCN2CC(=O)[O-])cc1.[Gd+3]

>  <ASSAY_METRIC>
Inhibition Rifampicine

>  <OBS_VALUE>
92

$$$$
